All values here come from ChEMBL document CHEMBL1124431.

Listing of entries alongside the reported logP.
Experiment: Partition coefficient (logP)
Format: physicochemical
Conditions: octanol/water
Lab note: record just the number, no unit beside it.

CO[C@@]12C(COC(N)=O)C3=C(C(=O)C(C)=C(OCCSCc4ccccc4)C3=O)N1CC1NC12 (some centres undefined): 3.58
COCC(O)COC1=C(C)C(=O)C2=C(C1=O)C(COC(N)=O)[C@@]1(OC)C3NC3CN21 (some centres undefined): -0.59
CO[C@@]12C(COC(N)=O)C3=C(C(=O)C(C)=C(OC/C=C/CO)C3=O)N1CC1NC12 (some centres undefined): 0.46

Next molecule, please.
# logP (molecule: CO[C@@]12C(COC(N)=O)C3=C(C(=O)C(C)=C(OCCN4CCCCC4)C3=O)N1CC1NC12 (some centres undefined) ) is 1.96
